System: Parabacteroides distasonis
assay.text: growth AUC relative to DMSO control (median of replicates) (fraction); higher = more growth (less inhibition), active = hit call of the paper
assay.context: 20 µM; 24 h
measurement.name: growth AUC
One number for each entry.

Reference set (5 entries):
{"molecule": "COC(=O)C(C)(Cl)Cl", "growth AUC": 1.05}
{"molecule": "N#Cc1c(O)c(Cl)c(Cl)c(C#N)c1Cl", "growth AUC": 1.03}
{"molecule": "NC(=S)c1c(Cl)cccc1Cl", "growth AUC": 0.965}
{"molecule": "O=c1oc2ccccc2c(O)c1C1CCCc2ccccc21 (configuration not stated)", "growth AUC": 0.805}
{"molecule": "CC(C)(C)c1ccc(CSc2cnn(C(C)(C)C)c(=O)c2Cl)cc1", "growth AUC": 0.988}

List growth AUC for every entry below, keeping the order given.
1. Oc1cc(Cl)cc(Cl)c1
2. C=C(C)CN(CC)c1c([N+](=O)[O-])cc(C(F)(F)F)cc1[N+](=O)[O-]
3. CCC(C)(NC(=O)c1cc(Cl)c(C)c(Cl)c1)C(=O)CCl (configuration not stated)
4. Cc1ccccc1C(=O)Nc1cccc(OC(C)C)c1
5. CNC(=O)Oc1cc(C)c(SC)c(C)c1
6. CP(=O)(O)CC(=O)O

Response:
[0.997, 1.02, 0.643, 1.04, 1.02, 0.979]

Record "O=C(OC1CCCCC1)c1ccccc1C(=O)OC1CCCCC1" / Parabacteroides distasonis, growth AUC recorded as 0.957

---

Tested on: Bacteroides uniformis
assay.text: growth AUC relative to DMSO control (median of replicates) (fraction); higher = more growth (less inhibition), active = hit call of the paper
assay.context: 20 µM; 24 h
measurement.name: growth AUC
Numbers only.

List growth AUC for every entry below, keeping the order given.
1. Clc1ccc(C2(Cn3cncn3)OCCO2)c(Cl)c1
2. CO/N=C(/C(=O)OC)c1ccccc1COc1ccccc1C
3. COP(=O)(OC)O/C(=C/Br)c1ccc(Cl)cc1Cl
4. CC(C)CC(C)c1sccc1NC(=O)c1cn(C)nc1C(F)(F)F (stereo unspecified)
5. CC(=O)CC(c1ccco1)c1c(O)c2ccccc2oc1=O (stereo unspecified)

Response:
0.985
0.955
0.961
0.942
0.968

// recorded growth AUC for "CCc1cccc(CC)c1N(COC)C(=O)CCl" : 0.985

---

Tested on: Escherichia coli IAI1
assay.text: growth AUC relative to DMSO control (median of replicates) (fraction); higher = more growth (less inhibition), active = hit call of the paper
assay.context: 20 µM; 24 h
I'd appreciate it if you could supply growth AUC values for the items below.
One number for each entry.

{"compound": "CCOP(=S)(OCC)OP(=S)(OCC)OCC", "assay.result": 0.979}

List growth AUC for every entry below, keeping the order given.
1. CC1CNC(=S)N1 (stereo not given)
2. ClCC1C(CCl)C2(Cl)C(Cl)=C(Cl)C1(Cl)C2(Cl)Cl (stereo not given)
3. O=C(NC(=O)c1c(F)cccc1F)Nc1ccc(Cl)c(Oc2ncc(C(F)(F)F)cc2Cl)c1
4. CCS(=O)(=O)CCSP(=O)(OC)OC
5. CO/N=C(/C(=O)OC)c1ccccc1CO/N=C(\C)c1cccc(C(F)(F)F)c1
6. CON(C)C(=O)Nc1ccc(Cl)c(Cl)c1
7. CN(C)C(CSS(=O)(=O)[O-])CSS(=O)(=O)[O-].[Na+].[Na+]

Response:
1.06
1
1.01
0.992
0.985
0.977
0.998

List growth AUC for every entry below, keeping the order given.
1. CC(C)=CC1C(C(=O)OCN2C(=O)C3=C(CCCC3)C2=O)C1(C)C (stereo not given)
2. Clc1ccc(C2(Cn3cncn3)OCCO2)c(Cl)c1
3. CC1(C)[C@H](/C=C(\Cl)C(F)(F)F)[C@@H]1C(=O)O[C@@H](C#N)c1cccc(Oc2ccccc2)c1

Response:
[0.97, 0.979, 0.992]

List growth AUC for every entry below, keeping the order given.
1. CNC(=O)Oc1cccc2c1OC(C)(C)C2=O
2. CNC(=O)Oc1cc(C)cc(C(C)C)c1
3. CCc1ccc(C(=O)NN(C(=O)c2cc(C)cc(C)c2)C(C)(C)C)cc1
4. N#Cc1c[nH]cc1-c1cccc(Cl)c1Cl

Response:
1.02
0.957
0.999
0.981

List growth AUC for every entry below, keeping the order given.
1. CNC(=O)Oc1ccccc1OC(CCl)OC (stereo not given)
2. O=C(Nc1ccc(F)cc1F)c1cccnc1Oc1cccc(C(F)(F)F)c1

Response:
1: 1.02; 2: 0.965
